// viability lookup, one value per entry
Assay: drug combination growth inhibition, ovarian cancer – cell-based, oncology-focused library, rucaparib conditional, profiling panel (AID 1508598)
Conditions: patient-derived ovarian cancer cells, CellTiter-Glo viability, 144 h; at 1.25 µM; OCI-P5x cells; without rucaparib; active compounds read low
readout.label: viability (%)

[[record]]
molecule = "COc1ccccc1OCC(O)CN1CCN(CC(=O)Nc2c(C)cccc2C)CC1 (configuration not stated)"
readout_label = "viability"
value_units = "%"
val = 92.6

[[record]]
molecule = "CN(Cc1cnc2nc(N)nc(N)c2n1)c1ccc(C(=O)N[C@@H](CCC(=O)O)C(=O)O)cc1"
readout_label = "viability"
value_units = "%"
val = 90.7

[[record]]
molecule = "CC[C@@]1(O)C(=O)OCc2c1cc1n(c2=O)Cc2cc3c(CN(C)C)c(O)ccc3nc2-1"
readout_label = "viability"
value_units = "%"
val = 1.56

[[record]]
molecule = "Cc1nc2ccc(CN(C)c3ccc(C(=O)N[C@@H](CCC(=O)O)C(=O)O)s3)cc2c(=O)[nH]1"
readout_label = "viability"
value_units = "%"
val = 116

[[record]]
molecule = "CC(c1cc2ccccc2s1)N(O)C(N)=O (configuration not stated)"
readout_label = "viability"
value_units = "%"
val = 124

[[record]]
molecule = "Cn1nnc2c(C(N)=O)ncn2c1=O"
readout_label = "viability"
value_units = "%"
val = 110

[[record]]
molecule = "O=c1c(O)c(-c2ccc(O)c(O)c2)oc2cc(O)cc(O)c12"
readout_label = "viability"
value_units = "%"
val = 107

